test_method_notes: in vitro
condition: human, liver microsomes
Entries annotated with measured remaining at 20 min, 1 µM
Give just the numeric value; % need not be written.

[[record]]
entry_smiles = "C[C@]12CC[C@H]3[C@@H](CCC4=CC(=O)CC[C@@]43C)[C@@H]1CC[C@@H]2O"
reading_unit = "%"
numeric_readout = 37.8


query: Requested read-out: remaining at 20 min, 1 µM. Entry: CCC(CC)O[C@@H]1C=C(C(=O)N[C@@H](C(=O)O)C(C)(C)C)C[C@H](N)[C@H]1NC(C)=O
result: 106

----------
test_target: Neuraminidase (Influenza A virus)
condition: A/Anhui/2005(H5N1), at 10 µM
Entries annotated with measured inhibition
Give just the numeric value; % need not be written.

Worked cases, inhibition given:
[[record]]
compound = "CCC(CC)O[C@@H]1C=C(C(=O)NCc2ccc(Cl)c(Cl)c2)C[C@H](N)[C@H]1NC(C)=O"
metric = "inhibition"
numeric_readout = 21.4

[[record]]
compound = "CCC(C)C[C@@H](NC(=O)C1=C[C@@H](OC(CC)CC)[C@H](NC(C)=O)[C@@H](N)C1)C(=O)OC (some centres not stated)"
metric = "inhibition"
numeric_readout = 50.5

[[record]]
compound = "CCC(CC)O[C@@H]1C=C(C(=O)N[C@H](CC(C)C)C(=O)OC)C[C@H](N)[C@H]1NC(C)=O"
metric = "inhibition"
numeric_readout = 41.7


For the next question, use this compound.
query: Requested read-out: inhibition. Entry: CCC(CC)O[C@@H]1C=C(C(=O)NC2CC2)C[C@H](N)[C@H]1NC(C)=O
result: 55.3
